Attribute: melting point

# example entries with known answers
molecule	melting point
COC(=O)CCCCC(=O)c1ccc(F)cc1	41 to 43 °C
CCCCc1oc2ccccc2c1C(=O)c1cc(Br)c(O[C@H](Cc2ccccc2)C(=O)O)c(Br)c1	56 to 58 °C
Cc1nc2ccccc2nc1Oc1ccc(OCc2ccccc2)cc1	99 to 102 °C
CCCCCCCCCCCCCCCCCCOc1cc(OCc2ccccc2)cc(N(CC(=O)OC)CC(=O)OC)c1	66 to 68 °C
CCN1c2cscc2CNc2ccccc21	85 to 87 °C
Cc1nccn1-c1nc(-c2ccc(C(F)(F)F)cc2)c(CCCO)o1	127 to 129 °C

What does the record list as melting point for "CCCCc1oc2ccc(C(=O)OC)cc2c1C(=O)c1ccc(CCN=[N+]=[N-])cc1" ?
60 to 62 °C

What does the record list as melting point for COc1ccc2c(c1OC)CCC1CN(C(=O)CCc3ccc([N+](=O)[O-])cc3)CC21 (stereo not given) ?
231 to 234 °C

What does the record list as melting point for "CNC(=O)c1ccccc1Sc1ccc(COC(C)=O)cc1[N+](=O)[O-]" ?
111 to 113 °C

What does the record list as melting point for "COc1cc(COC2CCN(C(=O)c3ccc([N+](=O)[O-])cc3)CC2)cc(OC)c1OC" ?
124 °C

What does the record list as melting point for "CN1Cc2c(C=O)ncn2-c2ccccc2C1=O" ?
202 to 203 °C

What does the record list as melting point for "CSc1cnc2c(-c3ccccc3)csc2c1O" ?
273 to 275 °C

What does the record list as melting point for "CC(C)(C)c1cc(CCc2ccccc2NC(=O)NC2CCN(Cc3ccccc3F)CC2)cc(C(C)(C)C)c1O" ?
136 to 137 °C

What does the record list as melting point for "O=C1CN(c2ccncc2)CCN1" ?
268 to 270 °C

What does the record list as melting point for "CCN(CC)CCNc1ccc(CO)c2sc3ccc(O)cc3c(=O)c12" ?
181 to 182 °C

###

Attribute: melting point

# example entries with known answers
compound	melting point
O=C(O)c1ccc2c(c1)S(=O)(=O)c1ccccc1C2	229 to 248 °C
Cc1cccc2c1C(=O)C(COC(=O)Nc1ccccc1)(COC(=O)Nc1ccccc1)CS2=O (stereo not given)	76 to 82 °C
CCOCc1nc2c(N)nc3cc(Br)ccc3c2n1CC1CCCCN1C(=O)OC(C)(C)C (stereo not given)	190 to 192 °C

With those in mind, consider the next compound.
What does the record list as melting point for "CCCCOC(=O)n1c(N)nc(C#N)c1C#N" ?
170 to 172 °C

###

Attribute: melting point

compound	experimental-value
COc1cc2c(cc1OC)C(C)(CC(=O)O)OCC2 (stereo unspecified)	89 to 92 °C
c1cnc(NCc2ccc(-c3n[nH]c4c3Cc3ccccc3-4)s2)nc1	232 to 233 °C
OCC1C=CC(n2cnc3c(O)ncnc32)O1 (stereo unspecified)	> 310 °C

What does the record list as melting point for "C[C@H](c1ccccc1)N1CCO[C@@H](c2ccc(C#N)cc2)C1" ?
83.6 °C

What does the record list as melting point for "CC1=C(CO)C(C)(C)CCC1=NO" ?
152 to 155 °C

What does the record list as melting point for "COc1ccc(-c2nc3cc(Cl)c(Cl)cc3[nH]2)cc1[N+](=O)[O-]" ?
250 °C

What does the record list as melting point for "COc1cc(OC)c2c(=O)cc(-c3nc4ccccc4[nH]3)oc2c1" ?
245 to 246 °C

What does the record list as melting point for CCC(O)c1c(C(C)C)nc(C(C)C)c(CO)c1-c1ccc(F)cc1 (stereo unspecified) ?
173 to 175 °C

What does the record list as melting point for "COc1cc(OCc2ccccn2)ccc1/C=C/c1cc(/C=C/c2ccc3ccn(Cc4ccccc4)c3c2)n[nH]1" ?
89 to 93 °C

What does the record list as melting point for "COC(=O)C(=CNc1ccsc1C(=O)O)SC" ?
179 to 180 °C

What does the record list as melting point for CC1(O)CC2c3ccccc3CCN2C2CCCCC21 (stereo unspecified) ?
85 to 88 °C
